target: DPAP1 (Plasmodium falciparum); test: primary screen, percent inhibition; higher = more effect of the substance;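 also: 30 min substrate incubation versus DMSO and 10 µM JCP410 controls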; set-up: species or system P. falciparum D10 trophozoite lysates; single well
The whole screen tested about 110,000 compounds, of which about 230 (0.21%) showed an effect of 50% or more. For the sample, strong results were picked, then their nearest neighbours and some compounds at random.
Outcome: rule met for % Inhibition @ 10 uM of at least 20%; rule not met for anything lower.

INSERT INTO results (compound, assigned_class) VALUES
  ('CCc1ccc(CNC(=O)NCc2noc3ccc(C)cc23)cc1', 'rule not met'),
  ('CCOc1cc(/C=C2/NC(=O)N(CC(=O)Nc3cccc(C)c3)C2=O)cc(Cl)c1O', 'rule not met'),
  ('C=CCOCC(O)CSc1nc(C)cc(C)n1 (stereo not shown)', 'rule not met'),
  ('Cc1cc2c(c(S)n1)C(=O)O/C2=C\c1c[nH]nc1-c1ccc(F)cc1', 'rule met'),
  ('COc1ccc2cc3cc(C(=O)NCCN4CCc5ccccc5C4)sc3nc2c1', 'rule not met'),
  ('CCOC(=O)C1=C(O)/C(=C\c2cc(C)n(-c3ccccc3C(=O)OC)c2C)N=C1C', 'rule not met'),
  ('CCOC(=O)C1=C(CN2CCC3(CC2)OCCO3)NC(=O)NC1c1cccc(OC)c1OC (stereo not shown)', 'rule met'),
  ('CCc1cc2c(=O)n(-c3ccc(Cl)cc3)c(=S)[nH]c2s1', 'rule met'),
  ('Cc1sc2[nH]c(=S)n(-c3ccccc3)c(=O)c2c1C', 'rule met'),
  ('CC1=C(C)CC(C(=O)Nc2cccc(F)c2)C(C(=O)O)C1 (stereo not shown)', 'rule not met'),
  ('CCOC(=O)c1cc(-c2ccccc2)n(CCC(=O)N2CCCC(C)C2)c1C (stereo not shown)', 'rule not met'),
  ('Nc1nnc(-c2ccc([N+](=O)[O-])cc2)s1', 'rule not met'),
  ('COc1ccc2nc3sc(C(=O)NCCCN4CCc5ccccc5C4)cc3cc2c1', 'rule met'),
  ('CCOc1ccc2c3c(c(=O)oc2c1)CCC3', 'rule not met'),
  ('N#Cc1c(C(F)(F)F)cc(-c2cccs2)nc1SCc1ccncc1', 'rule met'),
  ('CCOC(=O)C1=C(CN2CCN(C)CC2)NC(=O)NC1c1cccc(OC)c1OC (stereo not shown)', 'rule not met'),
  ('Cn1c(=O)c2c(nc(CN3CCc4ccccc4C3)n2Cc2ccccc2)n(C)c1=O', 'rule not met'),
  ('Cc1cccc(NC(=O)CSc2nc(-c3cccs3)cc(C(F)(F)F)c2C#N)n1', 'rule not met'),
  ('N#Cc1c(C(F)(F)F)cc(-c2cccs2)nc1SCC(=O)Nc1ccccn1', 'rule not met'),
  ('Cc1sc(NC(=O)COc2ccc(F)cc2F)c(C#N)c1C', 'rule met'),
  ('CCSc1nc(-c2cccs2)cc(C(F)(F)F)c1C#N', 'rule met'),
  ('O=C(CSc1nc2ccccc2o1)N1CCN(c2nnc(-c3ccccc3)c3ccccc23)CC1', 'rule not met'),
  ('CCS(=O)(=O)c1nc(S(=O)(=O)c2ccc(C)cc2)c(NCCc2ccccc2)s1', 'rule not met'),
  ('CCC1CCCCN1CCCNC(=O)c1cc2cc3cc(OC)ccc3nc2s1 (stereo not shown)', 'rule not met'),
  ('O=C(CSC1CC(=O)N(c2cccc(Cl)c2)C1=O)Nc1ccc(F)cc1 (stereo not shown)', 'rule not met'),
  ('COc1cccc2c(O)c(C(=O)O)cnc12', 'rule not met'),
  ('Cc1nsc2ccc3ccccc3c12', 'rule not met'),
  ('CCOC(=O)C1=C(O)/C(=C\c2cc(C)n(-c3ccccc3C(F)(F)F)c2C)N=C1C', 'rule met'),
  ('O=C(NCC1CCCO1)C1CCCN(S(=O)(=O)N2CCC3(CC2)OCCO3)C1 (stereo not shown)', 'rule not met'),
  ('CN(Cc1ccccc1)C(=O)c1ccc(C(C)(C)C)cc1', 'rule not met'),
  ('CCCCSc1nc(-c2cccs2)cc(C(F)(F)F)c1C#N', 'rule met'),
  ('Cc1sc(NC(=O)COc2ccc(Cl)cc2Cl)c(C#N)c1C', 'rule not met'),
  ('COc1ccc2nc3sc(C(=O)NCCN4CCOCC4)cc3cc2c1', 'rule not met'),
  ('CCSc1nc(-c2ccc(OC)cc2)cc(C(F)(F)F)c1C#N', 'rule not met'),
  ('COc1ccc2nc3sc(C(=O)NCCCN4CCCC4=O)cc3cc2c1', 'rule met'),
  ('Cc1cc2c(c(S)n1)C(=O)O/C2=C\c1ccco1', 'rule met'),
  ('CCCOc1ccc(C2C3=C(O)CC(C)(C)CC3=NC(C)=C2C(=O)Nc2ccccc2OC)cc1 (stereo not shown)', 'rule not met'),
  ('CCc1c(O)n(-c2ccccc2)c(=S)[nH]c1=O', 'rule not met'),
  ('CCOc1ccc(Nc2nc(-c3cccs3)cs2)cc1', 'rule not met'),
  ('CCc1c(C)sc(NC(=O)COc2ccc(F)cc2)c1C#N', 'rule not met'),
  ('CCOC(=O)C1=C(CN2CCN(C(=O)OCC)CC2)NC(=O)NC1c1cccc(OC)c1OC (stereo not shown)', 'rule not met'),
  ('CC(C)CCn1nnc2sc3c(c2c1=O)CCC(C)C3 (stereo not shown)', 'rule not met'),
  ('Cc1sc2[nH]c(=O)n(-c3ccc(Cl)c(Cl)c3)c(=O)c2c1C', 'rule not met'),
  ('O=C(O)CSC12CC3CC(CC(C3)C1)C2', 'rule not met'),
  ('Cc1nsc2ccc(Cl)cc12', 'rule met');

* * *

target: DPAP1 (Plasmodium falciparum, UniProt Q8IIJ9); test: primary screen, percent inhibition; read by cleavage of a fluorogenic dipeptide substrate; higher = more effect of the substance; parameters: species or system P. falciparum D10 trophozoite lysates; single well
Sequence (Q8IIJ9 whole entry, looked up): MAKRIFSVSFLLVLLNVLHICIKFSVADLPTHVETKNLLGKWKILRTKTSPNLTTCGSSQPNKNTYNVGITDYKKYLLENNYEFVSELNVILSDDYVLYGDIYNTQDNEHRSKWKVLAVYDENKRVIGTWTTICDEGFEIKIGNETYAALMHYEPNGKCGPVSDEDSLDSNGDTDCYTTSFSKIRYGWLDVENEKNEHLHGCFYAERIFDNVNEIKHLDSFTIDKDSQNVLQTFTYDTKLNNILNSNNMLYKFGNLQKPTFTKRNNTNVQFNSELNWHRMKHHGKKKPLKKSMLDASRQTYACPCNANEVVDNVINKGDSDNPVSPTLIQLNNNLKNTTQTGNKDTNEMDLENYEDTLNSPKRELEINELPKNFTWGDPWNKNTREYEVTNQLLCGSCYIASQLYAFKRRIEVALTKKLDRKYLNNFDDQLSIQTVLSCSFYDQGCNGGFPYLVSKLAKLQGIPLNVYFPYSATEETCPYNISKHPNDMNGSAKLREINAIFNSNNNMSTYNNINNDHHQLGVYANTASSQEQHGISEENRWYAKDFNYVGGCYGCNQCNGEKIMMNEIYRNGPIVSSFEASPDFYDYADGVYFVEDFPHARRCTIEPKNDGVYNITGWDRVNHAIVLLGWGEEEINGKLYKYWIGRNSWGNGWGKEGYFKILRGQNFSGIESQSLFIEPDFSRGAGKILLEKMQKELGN
The campaign covered roughly 110,000 compounds. About 230 (0.21%) showed an effect of 50% or more. The list comes from a sample in which strong results are over-represented; it also holds close analogues and randomly drawn compounds.
Assay Readout: % Inhibition @ 10 uM (%)

INSERT INTO measurements (molecule, measured_result) VALUES
  ('CCc1c(C)sc(NC(=O)Cc2ccc(OC)c(OC)c2)c1C(N)=O', 16.2),
  ('CCSC1=NSC2=NC(=O)/C(=C\c3c(C)[nH]c4ccccc34)C(=N)N12', 4.79),
  ('Cc1ccc(C(=O)NC2(C(F)(F)F)C(=O)Nc3c2c(=O)[nH]c(=O)n3-c2ccc(Cl)cc2)cc1 (stereo not drawn)', -3.39),
  ('CCn1c2ccccc2n2cc(-c3ccc4c(c3)OCO4)nc12', 0.486),
  ('Cc1nc2c(c(C)c1CCC(=O)N1CCC(N3CCCCC3)CC1)c(=O)n(C)c(=O)n2C', -6.91),
  ('CCOc1cccc(-n2cc(-c3ccccc3)nc2S)c1', 42.6),
  ('Cc1cc2nc(O)c(O)nc2cc1S(=O)(=O)N1CCN(CCOc2ccc(Cl)cc2)CC1', 52.3),
  ('CC(C)CSc1nc(N)c2c3c(sc2n1)CCC3', 81.4),
  ('CCOc1ccc(-c2cn(-c3ccccc3F)c(S)n2)cc1', 56.2),
  ('Cc1c(CNC2CCCc3ccccc32)c(C(=O)O)c(C)n1Cc1ccc(F)cc1 (stereo not drawn)', -5.49),
  ('COc1ccc2nc3sc(C(=O)NCCCN4CC(C)CC(C)C4)cc3cc2c1 (stereo not drawn)', -2.44),
  ('CC(C)Cc1c(C#N)c(N)nc(SCC(=O)c2ccc(-c3ccccc3)cc2)c1C#N', 16.2),
  ('COc1ccc(OC)c(C2C3=C(O)CCCC3=NC(C)=C2C(=O)Nc2ccccn2)c1 (stereo not drawn)', -8.82),
  ('O=C(NCC(=O)N1CCOCC1)c1ccccc1', 15.6),
  ('CC(C)(C)n1ncc2c(=O)n(Cc3c(F)cccc3Cl)cnc21', -1.75),
  ('CCC(C(=O)NCc1ccc(OC(C)C)cc1)n1nc(C)c2sc3ccccc3c2c1=O (stereo not drawn)', 2.8),
  ('COc1ccc(CN2CCN(Cc3cccc(F)c3)CC2)c(OC)c1OC', 5.99),
  ('Cc1ccc(C)c(-c2csc(NC(=O)CSc3ccccc3)c2C(N)=O)c1', 1.02),
  ('COCCNC(=O)CCN1C(=O)c2ccccc2Sc2ncccc21', -2.97),
  ('Cc1ccccc1OCC(O)CN1CCN(CC(O)COc2ccccc2C)CC1 (stereo not drawn)', -0.053),
  ('COc1ccc(OC)c(-n2cc(-c3ccccc3)nc2SC)c1', 4.49),
  ('Cc1ccc(OC(C)C(=O)N(Cc2ccccc2)C2CCS(=O)(=O)C2)cc1C (stereo not drawn)', 0.561),
  ('CCc1c(C#N)c(N)nc(SCc2ccccc2)c1C#N', 42.7),
  ('COc1ccc(Cl)cc1N(CC(=O)Nc1ccc(C(C)C)cc1)S(C)(=O)=O', 0.324),
  ('CCCSc1nc(N)c2c3c(sc2n1)CCCC3', 10.6),
  ('Cc1ccccc1-n1cc(-c2ccc3c(c2)OCO3)nc1S', 83.7),
  ('Cc1cc(C(=O)NCCc2ccccc2)c2c(C)nn(-c3ccccc3)c2n1', -6.46),
  ('Cc1cc2ccccc2n1CCNC(=O)C(c1ccccc1)c1ccccc1', -4.89),
  ('COc1cc(C)c2c(=O)c(Oc3ccccc3)c(C(F)(F)F)oc2c1', -5.69),
  ('Cc1cc(-c2ccc(C)c(S(=O)(=O)N3CCN(CCOc4ccc(Cl)cc4)CC3)c2)on1', -5.87),
  ('CCOC(=O)CSc1nc(N)c(C#N)c(CC)c1C#N', 20.6),
  ('CCOC(=O)c1sc2nc(N3CCOCC3)c3c(c2c1N)CCCC3', -2.87),
  ('Cn1c(C2=CC(C)(C)NC(C)(C)C2)ccc1C1=CC(C)(C)NC(C)(C)C1', -5.9),
  ('COc1cc(C2NCCc3c2[nH]c2ccccc32)ccc1OC(C)C (stereo not drawn)', 1.02),
  ('COc1ccccc1-n1cc(-c2ccccc2)nc1S', 58.6),
  ('COc1ccccc1S(=O)Cc1ccc(C(=O)NCCc2ccc(Cl)cc2)o1 (stereo not drawn)', -4.96),
  ('O=C1N=C(N2CCN(Cc3ccccc3)CC2)S/C1=C\c1ccccc1', -2.82),
  ('OC(COc1ccccc1Cl)CN1CCN(CC(O)COc2ccccc2Cl)CC1 (stereo not drawn)', 0.131),
  ('CCc1c(C#N)c(N)nc(S)c1C#N', 74.5),
  ('O=C1N=C(N2CCN(C3=NC(=O)/C(=C\c4cccc(O)c4)S3)CC2)S/C1=C\c1cccc(O)c1', 6),
  ('CCc1ccc(NC(=O)C2CCN(S(=O)(=O)c3cc(Cl)ccc3Cl)CC2)cc1', -4.06),
  ('NC(=O)c1sc2nc(N3CCOCC3)c3c(c2c1N)CCCC3', 50.2),
  ('CCN(CC)CCCNc1cnnc2c(Cl)cccc12', -4.4),
  ('Sc1nc(-c2ccc3c(c2)OCO3)cn1-c1cccc(Cl)c1', 19.5),
  ('O=C1N=C(N2CCN(Cc3ccccc3)CC2)S/C1=C\c1cccc(O)c1', 51);
